System: Leishmania infantum axenic amastigotes
Assay: Evaluation on Leishmania donovani infantum axenic amastigotes (SYBR Green I)
Assay type: cell-based
Conditions: Leishmania infantum; Table II; 3 different experiments, SYBR Green I method; read-out: IC50 axenic
ASSAY_METRIC: IC50 (µM)

These recorded examples may help you get a feel for the data.
C[C@@H]1[C@@H](NCc2cccc(Br)c2)C[C@H]2C[C@@H]1C2(C)C: 3.7
C[C@@H]1[C@@H](NCc2cccc(Cl)c2)C[C@H]2C[C@@H]1C2(C)C: 30.5
COc1ccc(Br)cc1CN[C@@H]1C[C@@H]2C[C@H]([C@H]1C)C2(C)C: 4.86

A. C[C@@H]1[C@@H](NCc2ccc(I)cc2)C[C@H]2C[C@@H]1C2(C)C
B. C[C@@H]1[C@@H](NCc2ccoc2)C[C@H]2C[C@@H]1C2(C)C
C. C[C@@H]1[C@@H](NCc2cc(F)ccc2F)C[C@H]2C[C@@H]1C2(C)C
D. C[C@@H]1[C@@H](NCc2ccc(-n3ccnc3)cc2)C[C@H]2C[C@@H]1C2(C)C
Sort the compounds on IC50; start with the lowest figure. Provide your answer as the labels ordered per the instruction.
B, D, A, C

###

Test system: L. infantum intramacrophagic amastigotes
Test: L. donovani infantum/RAW 264.7 macrophage model (intramacrophagic amastigotes, SYBR Green I)
Assay type: cell-based, Leishmania donovani infantum
Settings: Leishmania infantum, Macrophage; Table II; 3 different experiments, SYBR Green I method; read-out: IC50 intramacrophagic
ASSAY_METRIC: IC50 (nM)

I. COc1ccccc1CN[C@H]1C[C@H]2C[C@@H]([C@@H]1C)C2(C)C
II. COc1ccc(Br)cc1CNC12CC3CC(CC(C3)C1)C2
Kindly identify which of I and II has the larger recorded IC50 value. // caller expects the label of the chosen entry
II

I. C[C@@H]1[C@@H](NCc2cccc(Cl)c2)C[C@H]2C[C@@H]1C2(C)C
II. C[C@@H]1[C@@H](NCc2ccc3c(c2)Cc2ccccc2-3)C[C@H]2C[C@@H]1C2(C)C
Which shows the larger IC50 value: I or II ? I would appreciate it if you answered with the label of your choice.
II

P. COc1ccc(Br)cc1CN[C@@H]1C[C@@H]2C[C@H]([C@H]1C)C2(C)C
Q. C[C@@H]1[C@@H](NCc2cc(F)ccc2F)C[C@H]2C[C@@H]1C2(C)C
From the items above, decide which of P and Q has the lower IC50 reading. // output: label of the selected item
Q

###

System: L. infantum intramacrophagic amastigotes
Experiment: L. donovani infantum/RAW 264.7 macrophage model (intramacrophagic amastigotes, SYBR Green I)
Format: cell-based, Leishmania donovani infantum
Conditions: Leishmania infantum, Macrophage; Table II; 3 different experiments, SYBR Green I method; read-out: IC50 intramacrophagic
ASSAY_METRIC: pIC50
Would you please state pIC50, meaning minus log10 of the concentration in mol/L, as a bare number?

These solved cases illustrate the format of a correct answer.
C[C@@H]1[C@@H](NCc2c[nH]c3ccccc23)C[C@H]2C[C@@H]1C2(C)C [VP359]: 6.60
COc1ccc(Br)cc1/C=N/C12CC3CC(CC(C3)C1)C2 [VP300A]: 6.68

--- query ---
Checklist item: pIC50 tested on L. infantum intramacrophagic amastigotes, entry COc1cccc(OC)c1CN[C@H]1C[C@H]2C[C@@H]([C@@H]1C)C2(C)C [VP370] , value?
7.40
